- SYSTEM NAME: 3-hydroxyacyl-CoA dehydrogenase type-2 (Homo sapiens) (UniProt Q99714)
- TEST: qHTS Assay for Inhibitors of HSD17B4, hydroxysteroid (17-beta) dehydrogenase 4;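 also: the protocol describes HADH2 (HSD17B10) and not the HSD17B4 of the title; nearly all actives have a fitted effect of over 70% in size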
- CONDITION CONTEXT: recombinant HSD17B10, NADH fluorescence kinetic; series mostly up to 57.1 µM
In all, about 75,000 compounds went through this assay and about 5,700 (7.6%) were called active. Another 7% or so got no clear call; they are omitted. Calls follow the shape of the dose curve; as a rule, active = well fitted inhibition curve with a large enough effect; inconclusive = small, poorly fitted or top-dose-only effect; inactive = no such curve, though single readings can be large or run the other way. Shown is part of a subset that was picked to be rich in actives.
Can you answer with just one of these options? active, inactive

Exercise: Which outcome did this test record for the compound COc1ccccc1C(=O)Oc1ccc(N2C(=O)CCC2=O)cc1 ?
Key: inactive

Exercise: Which outcome did this test record for the compound O=C(c1cn(-c2ccccc2)nc1-c1cccnc1)N1CCCCC1 ?
Key: inactive

Exercise: Which outcome did this test record for the compound COc1ccc(NC(=O)c2ccc(OC)cc2)cc1 ?
Key: inactive

Exercise: Which outcome did this test record for the compound COc1ccc(-n2c(SCC(=O)OC(C)C)nnc2-c2ccccn2)cc1 ?
Key: inactive

Exercise: Which outcome did this test record for the compound CCOC(=O)N1CCC(Nc2c(NCCN3CCN(c4cccc(Cl)c4)CC3)c(=O)c2=O)CC1 ?
Key: inactive

Exercise: Which outcome did this test record for the compound Cc1ccccc1C(=O)O ?
Key: inactive

Exercise: Which outcome did this test record for the compound COc1ccc(CC(=O)c2ccc(O)cc2O)cc1OC ?
Key: inactive

Exercise: Which outcome did this test record for the compound COc1ccc(CC(=O)Nc2ccc(-c3nnc(-c4ccccc4)o3)cc2)cc1 ?
Key: active

More entries:
Exercise: Which outcome did this test record for the compound CCOC(=O)c1cn(CC(=O)Nc2ccc(C(C)C)cc2)nn1 ?
Key: inactive

Exercise: Which outcome did this test record for the compound CC/C(=N\O)C(C)(C)/[N+]([O-])=C/c1ccc(Br)cc1 ?
Key: inactive

Exercise: Which outcome did this test record for the compound O=C(Nc1ccc(-c2nnc(-c3ccccc3)o2)cc1)C1CCCO1 (configuration not stated) ?
Key: active

Exercise: Which outcome did this test record for the compound CCCCCNC(=O)Cc1ccc(OC)cc1 ?
Key: inactive
